Each recorded value in this set is attributed to the Immune Epitope Database (IEDB).

target: HLA-A*32:01; test: IEDB peptide-MHC binding, purified MHC/competitive/radioactivity; filed as Kd, often an IC50 or EC50 that approximates it; bounds were set here for any values at or beyond the usual limits of such assays; conditions: source organism: Lassa virus Josiah
measurement label: Kd (µM)
Answers are plain numbers, in µM.

# query: Kd of entry DCIMTSYQYL 3.04

----------
biological target: HLA-A*03:01; assay: IEDB peptide-MHC binding, purified MHC/competitive/radioactivity; filed as Kd, often an IC50 or EC50 that approximates it; bounds were set here for any values at or beyond the usual limits of such assays; conditions: source organism: Vaccinia virus WR
Threshold 2 µM. Kd below it: class 1. Kd at it or above: class 0.

Example cases with answers are listed next.
1) SINVTIPEQY    class 0
2) CFKEASFSKR    class 0
3) ISRDELWAR    class 0
4) SLELIIIHTK    class 0
5) ESRDRKWLYY    class 0

For GIGTFLHYK , is the recorded Kd below the cut-off of 2 µM? class 1

Record: IFPANINDK class 0

Record: NTTYDFLARK class 1

Record: FIDVHIPKFK class 1

Record: RSLQTIASK class 1

Record: LVFNSISAR class 1

Record: HIKTIAVSVY class 1

----------
molecular target: HLA-A*03:01; experiment: IEDB peptide-MHC binding, purified MHC/competitive/fluorescence; filed as Kd, often an IC50 or EC50 that approximates it; bounds were set here for any values at or beyond the usual limits of such assays; conditions: source organism: Burkholderia orbicola
measurement label: Kd

# query: Kd of entry RIEQLYPFA ≥ 20 µM

----------
target: HLA-A*01:01; experiment: IEDB peptide-MHC binding, purified MHC/competitive/fluorescence; bounds were set here for any values at or beyond the usual limits of such assays; settings: source organism: Zaire ebolavirus
measurement label: IC50 (µM)
One number for each entry, in µM.

Value wanted: IC50 (HLA-A*01:01) of entry TSDGKEYTY 3.45

----------
target: HLA-B*46:01; experiment: IEDB peptide-MHC binding, purified MHC/direct/fluorescence; filed as Kd, often an IC50 or EC50 that approximates it; bounds were set here for any values at or beyond the usual limits of such assays; details: source organism: Marburg virus - Musoke, Kenya, 1980
pKd: −log10 of the molar value.
measurement label: pKd

# query: pKd of entry ALFHKVQSY ≤ 4.70

----------
biological target: HLA-B*40:01; experiment: IEDB peptide-MHC binding, purified MHC/direct/fluorescence; filed as Kd, often an IC50 or EC50 that approximates it; bounds were set here for any values at or beyond the usual limits of such assays; settings: source organism: Marburg virus - Musoke, Kenya, 1980
measurement label: pKd
Give bare numbers, as −log10 of the molar value.

# query: pKd of entry SEINNLNLT 5.15

----------
target: HLA-A*02:01; assay: IEDB peptide-MHC binding, purified MHC/competitive/fluorescence; filed as Kd, often an IC50 or EC50 that approximates it; bounds were set here for any values at or beyond the usual limits of such assays; conditions: source organism: Human immunodeficiency virus 1
measurement label: pKd
Numbers only, as −log10 of the molar value.

# query: pKd of entry GLADQLIHI 7.53

----------
target: HLA-B*18:01; assay: IEDB peptide-MHC binding, purified MHC/direct/fluorescence; filed as Kd, often an IC50 or EC50 that approximates it; bounds were set here for any values at or beyond the usual limits of such assays; settings: source organism: Mycobacterium tuberculosis str. Haarlem
measurement label: Kd

# query: Kd of entry IMANRAQVL ≥ 20 µM
